Conditions: in 2-ethoxyethanol, 313.15 K
endpoint_label: solubility (mole fraction)
Response field accepts a number only; no unit should be typed.

### Prompt Supply recorded solubility (mole fraction) for NC(=O)c1cccnc1Cl here.
### Response 0.0437

###

Conditions: in ethanol, 313.15 K
endpoint_label: solubility (mole fraction)

### Prompt Supply recorded solubility (mole fraction) for NC(=O)c1cccnc1Cl here.
### Response 0.0124

###

Conditions: in methanol, 278.15 K
endpoint_label: solubility (mole fraction)
Response field accepts a number only; no unit should be typed.

### Prompt Supply recorded solubility (mole fraction) for NC(=O)c1cccnc1Cl here.
### Response 0.00747

###

Conditions: in 2-methoxyethanol, 313.15 K
endpoint_label: solubility (mole fraction)
Response field accepts a number only; no unit should be typed.

### Prompt Supply recorded solubility (mole fraction) for NC(=O)c1cccnc1Cl here.
### Response 0.0642

###

Conditions: in ethylene glycol, 278.15 K
endpoint_label: solubility (mole fraction)

### Prompt Supply recorded solubility (mole fraction) for NC(=O)c1cccnc1Cl here.
### Response 0.00783

###

Settings: in DMAc, 298.15 K
endpoint_label: solubility (mole fraction)
Response field accepts a number only; no unit should be typed.

### Prompt Supply recorded solubility (mole fraction) for NC(=O)c1cccnc1Cl here.
### Response 0.175

###

Conditions: in DMF, 283.15 K
endpoint_label: solubility (mole fraction)
Response field accepts a number only; no unit should be typed.

### Prompt Supply recorded solubility (mole fraction) for NC(=O)c1cccnc1Cl here.
### Response 0.107

###

Conditions: in methyl acetate, 323.15 K
endpoint_label: solubility (mole fraction)
Response field accepts a number only; no unit should be typed.

### Prompt Supply recorded solubility (mole fraction) for NC(=O)c1cccnc1Cl here.
### Response 0.0127

###

Conditions: in DMF, 323.15 K
endpoint_label: solubility (mole fraction)
Response field accepts a number only; no unit should be typed.

### Prompt Supply recorded solubility (mole fraction) for NC(=O)c1cccnc1Cl here.
### Response 0.202

###

Conditions: in ethylene glycol, 293.15 K
endpoint_label: solubility (mole fraction)
Response field accepts a number only; no unit should be typed.

### Prompt Supply recorded solubility (mole fraction) for NC(=O)c1cccnc1Cl here.
### Response 0.0136

###

Conditions: in ethylene glycol, 313.15 K
endpoint_label: solubility (mole fraction)
Response field accepts a number only; no unit should be typed.

### Prompt Supply recorded solubility (mole fraction) for NC(=O)c1cccnc1Cl here.
### Response 0.0283

###

Conditions: in water, 288.15 K
endpoint_label: solubility (mole fraction)
Response field accepts a number only; no unit should be typed.

### Prompt Supply recorded solubility (mole fraction) for NC(=O)c1cccnc1Cl here.
### Response 0.00127

###

Conditions: in DMAc, 323.15 K
endpoint_label: solubility (mole fraction)
Response field accepts a number only; no unit should be typed.

### Prompt Supply recorded solubility (mole fraction) for NC(=O)c1cccnc1Cl here.
### Response 0.24

###

Conditions: in 2-ethoxyethanol, 293.15 K
endpoint_label: solubility (mole fraction)
Response field accepts a number only; no unit should be typed.

### Prompt Supply recorded solubility (mole fraction) for NC(=O)c1cccnc1Cl here.
### Response 0.0224

###

Details: in 2-methoxyethanol, 323.15 K
endpoint_label: solubility (mole fraction)
Response field accepts a number only; no unit should be typed.

### Prompt Supply recorded solubility (mole fraction) for NC(=O)c1cccnc1Cl here.
### Response 0.0856

###

Conditions: in ethanol, 308.15 K
endpoint_label: solubility (mole fraction)

### Prompt Supply recorded solubility (mole fraction) for NC(=O)c1cccnc1Cl here.
### Response 0.0101

###

Conditions: in DMF, 303.15 K
endpoint_label: solubility (mole fraction)
Response field accepts a number only; no unit should be typed.

### Prompt Supply recorded solubility (mole fraction) for NC(=O)c1cccnc1Cl here.
### Response 0.149

###

Conditions: in DMAc, 308.15 K
endpoint_label: solubility (mole fraction)
Response field accepts a number only; no unit should be typed.

### Prompt Supply recorded solubility (mole fraction) for NC(=O)c1cccnc1Cl here.
### Response 0.199

###

Settings: in ethylene glycol, 288.15 K
endpoint_label: solubility (mole fraction)
Response field accepts a number only; no unit should be typed.

### Prompt Supply recorded solubility (mole fraction) for NC(=O)c1cccnc1Cl here.
### Response 0.0114

###

Conditions: in ethanol, 318.15 K
endpoint_label: solubility (mole fraction)

### Prompt Supply recorded solubility (mole fraction) for NC(=O)c1cccnc1Cl here.
### Response 0.0147

###

Settings: in methanol, 318.15 K
endpoint_label: solubility (mole fraction)

### Prompt Supply recorded solubility (mole fraction) for NC(=O)c1cccnc1Cl here.
### Response 0.0278

###

Settings: in water, 318.15 K
endpoint_label: solubility (mole fraction)
Response field accepts a number only; no unit should be typed.

### Prompt Supply recorded solubility (mole fraction) for NC(=O)c1cccnc1Cl here.
### Response 0.00437

###

Conditions: in ethanol, 323.15 K
endpoint_label: solubility (mole fraction)
Response field accepts a number only; no unit should be typed.

### Prompt Supply recorded solubility (mole fraction) for NC(=O)c1cccnc1Cl here.
### Response 0.0178

###

Conditions: in 2-methoxyethanol, 318.15 K
endpoint_label: solubility (mole fraction)
Response field accepts a number only; no unit should be typed.

### Prompt Supply recorded solubility (mole fraction) for NC(=O)c1cccnc1Cl here.
### Response 0.0747

###

Settings: in 2-ethoxyethanol, 308.15 K
endpoint_label: solubility (mole fraction)
Response field accepts a number only; no unit should be typed.

### Prompt Supply recorded solubility (mole fraction) for NC(=O)c1cccnc1Cl here.
### Response 0.0375

###

Details: in ethylene glycol, 318.15 K
endpoint_label: solubility (mole fraction)

### Prompt Supply recorded solubility (mole fraction) for NC(=O)c1cccnc1Cl here.
### Response 0.034

###

Conditions: in 2-ethoxyethanol, 278.15 K
endpoint_label: solubility (mole fraction)
Response field accepts a number only; no unit should be typed.

### Prompt Supply recorded solubility (mole fraction) for NC(=O)c1cccnc1Cl here.
### Response 0.0124

###

Details: in DMF, 278.15 K
endpoint_label: solubility (mole fraction)
Response field accepts a number only; no unit should be typed.

### Prompt Supply recorded solubility (mole fraction) for NC(=O)c1cccnc1Cl here.
### Response 0.0981

###

Conditions: in water, 298.15 K
endpoint_label: solubility (mole fraction)
Response field accepts a number only; no unit should be typed.

### Prompt Supply recorded solubility (mole fraction) for NC(=O)c1cccnc1Cl here.
### Response 0.00193

###

Conditions: in methanol, 313.15 K
endpoint_label: solubility (mole fraction)
Response field accepts a number only; no unit should be typed.

### Prompt Supply recorded solubility (mole fraction) for NC(=O)c1cccnc1Cl here.
### Response 0.0238

###

Conditions: in 1,4-dioxane, 298.15 K
endpoint_label: solubility (mole fraction)
Response field accepts a number only; no unit should be typed.

### Prompt Supply recorded solubility (mole fraction) for NC(=O)c1cccnc1Cl here.
### Response 0.00958

###

Settings: in 2-methoxyethanol, 303.15 K
endpoint_label: solubility (mole fraction)

### Prompt Supply recorded solubility (mole fraction) for NC(=O)c1cccnc1Cl here.
### Response 0.0478

###

Settings: in methanol, 298.15 K
endpoint_label: solubility (mole fraction)
Response field accepts a number only; no unit should be typed.

### Prompt Supply recorded solubility (mole fraction) for NC(=O)c1cccnc1Cl here.
### Response 0.0148

###

Details: in ethanol, 283.15 K
endpoint_label: solubility (mole fraction)
Response field accepts a number only; no unit should be typed.

### Prompt Supply recorded solubility (mole fraction) for NC(=O)c1cccnc1Cl here.
### Response 0.00366

###

Conditions: in methyl acetate, 313.15 K
endpoint_label: solubility (mole fraction)
Response field accepts a number only; no unit should be typed.

### Prompt Supply recorded solubility (mole fraction) for NC(=O)c1cccnc1Cl here.
### Response 0.00885

###

Details: in water, 313.15 K
endpoint_label: solubility (mole fraction)
Response field accepts a number only; no unit should be typed.

### Prompt Supply recorded solubility (mole fraction) for NC(=O)c1cccnc1Cl here.
### Response 0.00351

###

Conditions: in water, 293.15 K
endpoint_label: solubility (mole fraction)

### Prompt Supply recorded solubility (mole fraction) for NC(=O)c1cccnc1Cl here.
### Response 0.00157

###

Details: in ethylene glycol, 303.15 K
endpoint_label: solubility (mole fraction)

### Prompt Supply recorded solubility (mole fraction) for NC(=O)c1cccnc1Cl here.
### Response 0.0201

###

Conditions: in 2-ethoxyethanol, 303.15 K
endpoint_label: solubility (mole fraction)

### Prompt Supply recorded solubility (mole fraction) for NC(=O)c1cccnc1Cl here.
### Response 0.0311

###

Settings: in ethanol, 293.15 K
endpoint_label: solubility (mole fraction)
Response field accepts a number only; no unit should be typed.

### Prompt Supply recorded solubility (mole fraction) for NC(=O)c1cccnc1Cl here.
### Response 0.00539

###

Settings: in 2-ethoxyethanol, 288.15 K
endpoint_label: solubility (mole fraction)
Response field accepts a number only; no unit should be typed.

### Prompt Supply recorded solubility (mole fraction) for NC(=O)c1cccnc1Cl here.
### Response 0.0182

Origin of measurements: BigSolDB 2.1
